- System: U87 glioblastoma cells
- assay method text: MTT in vitro cytotoxicity assay, U87
- Type: cell-based
- assay conditions: 72 h drug exposure, n = 3, read-out: GI50 ± SEM, U87
value type: GI50 (nM)
Just the number in nM, nothing appended.

In the examples that follow, each entry is paired with its recorded GI50.
>  <smi>
O=C1N[C@H]2[C@H](CS[C@H]2CCCCC(=O)[O][Pt-2]23([OH])([NH2+][C@H]4CCCC[C@@H]4[NH2+]2)[n+]2cccc4ccc5ccc[n+]3c5c42)N1.O=[N+]([O-])[O-].O=[N+]([O-])[O-]

>  <value type>
GI50

>  <measured value>
970

$$$$
>  <smi>
Cc1cc2ccc[n+]3c2c2c1ccc[n+]2[Pt-2]31[NH2+][C@H]2CCCC[C@@H]2[NH2+]1.[Cl-].[Cl-]

>  <value type>
GI50

>  <measured value>
320

$$$$

Alright, here's another compound for you.
Per the reported U87 glioblastoma cells data, `Cc1c(C)c2ccc[n+]3c2c2c1ccc[n+]2[Pt-2]31([OH])([O]C(=O)CCCC[C@@H]2SC[C@@H]3NC(=O)N[C@@H]32)[NH2+][C@H]2CCCC[C@@H]2[NH2+]1.O=[N+]([O-])[O-].O=[N+]([O-])[O-]` has GI50 of 32

Values compiled from paper PMC9853328.
